// provenance: patent EP4793287A1

- Assayed Target: antibody antigen (CD47) coated in the ELISA of Example 3 (UniProt Q08722)
- Sequence (Q08722 19-139 limits assumed): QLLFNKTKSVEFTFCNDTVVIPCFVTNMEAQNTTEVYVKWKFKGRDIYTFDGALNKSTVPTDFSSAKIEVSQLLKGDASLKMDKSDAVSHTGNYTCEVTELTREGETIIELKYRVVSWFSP
- Procedure Details: ELISA on coated antigen, ratio against wild-type 70H1
Value Type: Mutant Binding Strength (EC50 post-mutation / EC50 wild-type)
Number, no unit, nothing else.

INSERT INTO measurements (binder, number) VALUES
  ('70H1 mutant VL-92 F to C (antibody, V domains shown) VH: QQQLEESGGGLVKPEGSLTLTCTASGFSFSSGYDMCWVRQAPGRGLEWIACIYTRSSGGTYYASWAKGRFTISKTSSTVDLRMTSLTAADTATYFCAGGRSSYRLNLWGQGALVTVSS VL: DVVMTQTPSPVEAAVGGTVTIKCQASQSISNELSWYQQKPGQPPKLLIYRASTLESGVSSRFKGSGSGTEFTLTISDLECADAATYYCQSTCYGDYGNAFGGGTEVVVK', 1.3);

// below: Mutant Binding Strength (EC50 post-mutation / EC50 wild-type) requested for another binder
Input: Given the binder 70H1 mutant VH-65 W to C (antibody, V domains shown) VH: QQQLEESGGGLVKPEGSLTLTCTASGFSFSSGYDMCWVRQAPGRGLEWIACIYTRSSGGTYYASCAKGRFTISKTSSTVDLRMTSLTAADTATYFCAGGRSSYRLNLWGQGALVTVSS VL: DVVMTQTPSPVEAAVGGTVTIKCQASQSISNELSWYQQKPGQPPKLLIYRASTLESGVSSRFKGSGSGTEFTLTISDLECADAATYYCQSTFYGDYGNAFGGGTEVVVK , what is its reported Mutant Binding Strength (EC50 post-mutation / EC50 wild-type)?
Output: 0.8
